Values compiled from PubChem BioAssay AID1259339.

test: TruHit bead signal quenchers or artefacts – biochemical, TruHit kit, artefact control, dose response (AID 1259339); conditions: TruHit alphaLISA kit signal interference counterscreen; series mostly up to 80 µM
The source made the active and inactive calls.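 The calls were made as follows: active = fitted AC50 no higher than ten times the top tested dose (cut at about 90 µM in these data); inconclusive = flat curve with 30 to 70% signal loss, or bad fit; inactive = AC50 beyond ten times the top dose.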
Outcomes: True = active, False = inactive

COMPOUND	GROUP
O=C(Nc1ccc2oc(-c3ccncc3)nc2c1)c1ccc2c(c1)OCO2	False
NC(=O)C1(N2CCCCC2)CCN(c2ncc(NC(=O)c3cccs3)cc2C(=O)O)CC1	False
O=C(CCN1CCOCC1)c1ccc2c(c1)OCCO2	False
Cc1ccc(N2C(=O)c3ccccc3C2C(=O)c2ccc(O)cc2O)cc1 (stereo not given)	False
O=S(=O)(c1ccc2nc(-c3ccco3)c(-c3ccco3)nc2c1)N1CCOCC1	True
COc1c(C(=O)O)csc1Br	True
Cc1ccc2cc(CN(Cc3ccco3)S(C)(=O)=O)c(=O)[nH]c2c1	False
CCCc1cc(C(=O)N2CC[C@H]3CNC[C@H]32)n(C)n1	False
COc1ccc(S(=O)(=O)N2CCN(C(=O)c3cc4c(s3)CCC4)CC2)cc1	False
COc1ccc(S(=O)(=O)c2ccccc2)cc1NS(=O)(=O)c1cccc(C(=O)O)c1	False

###

experiment: TruHit bead signal quenchers or artefacts – biochemical, TruHit kit, artefact control, dose response (AID 1259339); conditions: TruHit alphaLISA kit signal interference counterscreen; series mostly up to 80 µM
The source made the active and inactive calls.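 Rule for the calls: active = fitted AC50 no higher than ten times the top tested dose (cut at about 90 µM in these data); inconclusive = flat curve with 30 to 70% signal loss, or bad fit; inactive = AC50 beyond ten times the top dose.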
Outcomes: active, inactive

COMPOUND_SMILES	GROUP
Cc1cccc(Nc2nc(C(=O)Nc3cc(F)ccc3F)nc3ccccc23)c1	inactive
c1ccc(-c2nc(-c3ccco3)n3ccccc23)cc1	active
CCc1nc(OCc2ccco2)c2sc3nc4c(cc3c2n1)COC(C)(C)C4	inactive
